# maps each entry to its RP-LC retention time
# test: gradient 5% acetonitrile 3 min, to 50% in 2 min, to 85% in 15 min, held 3 min, 100 µL/min
# recorded.conditions: column: Zorbax Extend-C18 2.1 x 50 mm; eluents: water / acetonitrile, 0.1% formic acid
measured.metric: RP-LC retention time (s)

molecule=CCOc1ccc(-c2cn3ccn(-c4cccc(F)c4)c(=O)c3n2)cc1 value_units=s measurement=846
molecule=Cc1nn(CC(=O)NCCN2CCCC2)c(=O)c2cc(-c3ccccc3)nn12 value_units=s measurement=631
molecule=COC(=O)c1ccc(NC(=O)Cc2csc(Nc3ccc(F)cc3)n2)cc1 value_units=s measurement=838
molecule="COC(=O)c1ccccc1NC(=O)C12CCC(C1)C(C)(C)C2=O (centres undefined)" value_units=s measurement=951
molecule="CC(C)(C)NCC(O)c1cc(Cl)c(N)c(C(F)(F)F)c1 (centres undefined)" value_units=s measurement=708
molecule=CCn1cc(C)c(C(=O)O)c1CC(=O)NCCC(C)C value_units=s measurement=749
molecule="Cc1ccc(N2C(=O)C3N=NN(Cc4nc(-c5cccc(C)c5)no4)C3C2=O)cc1 (centres undefined)" value_units=s measurement=1040
molecule=COc1ccc(N2CCN(C(=O)Cc3csc4nc(-c5ccc(OC)c(OC)c5)cn34)CC2)cc1 value_units=s measurement=686
molecule=Cc1cc2c(=O)n(CC(=O)NCc3ccc(Cl)cc3)c3cccnc3n2n1 value_units=s measurement=714
molecule=O=C(Cn1c(N2CCCCC2)nc2ccccc2c1=O)N1CCN(c2ccccn2)CC1 value_units=s measurement=643
molecule=COc1cc(OC)cc(C(=O)N2CCN(c3nnc4c(Cl)cccn34)CC2)c1 value_units=s measurement=603
molecule=CCn1nnc2ccc(-c3noc(-c4ccc(C)cc4)n3)cc21 value_units=s measurement=1140
molecule=CCCn1nnc(NCc2ccc(-c3cccc(Cl)c3C)o2)n1 value_units=s measurement=1130
molecule="O=C(Nc1nnc(C2CC(=O)N(c3ccc(F)cc3)C2)o1)c1ccc(Br)cc1 (centres undefined)" value_units=s measurement=783
molecule=CCOCC(=O)N1CCc2nc(N3CCN(C)CC3)sc2C1 value_units=s measurement=557
molecule="Cc1ccccc1NC(=O)CN1C(=O)CC(C)S(=O)(=O)c2ccccc21 (centres undefined)" value_units=s measurement=760
molecule=COc1ccc(OC)c(-c2csc(-c3nnn(-c4ccc(Cl)cc4)c3N)n2)c1 value_units=s measurement=1200
molecule=CCNC(=O)NCCc1cn(C)c2ncccc12 value_units=s measurement=556
molecule=O=C(O)Cn1nnc(-c2cc(N3CCC(Oc4cc(F)ccc4Br)CC3)no2)n1 value_units=s measurement=1000
molecule=Cc1cccc(NC(=O)Cn2c(=O)nc(N3CCC(C)CC3)c3ccccc32)c1C value_units=s measurement=909
molecule=O=c1n(Cc2ccccc2)nc2c(S(=O)(=O)N3CCCCCC3)cccn12 value_units=s measurement=948
molecule=CCn1c(-c2cccc(C(=O)NCc3cccs3)c2)nc2cccnc21 value_units=s measurement=733
molecule=COc1ccc(-c2csc(NC(=O)/C=C/C(=O)O)n2)cc1 value_units=s measurement=752
molecule=CCCn1cc(C(=O)NCC(C)C)c(S(=O)(=O)N2CCN(c3ccccc3OCC)CC2)n1 value_units=s measurement=1180
molecule="COc1cccc(CNC(=O)N2CCCC2c2cc(C(C)C)on2)c1 (centres undefined)" value_units=s measurement=832
molecule=Cc1ccc(N2CCN(c3nccn4c(=O)n(CC(=O)Nc5ccc(C)c(Cl)c5)nc34)CC2)cc1 value_units=s measurement=1060
molecule=CC(C)Cn1cc(CCNS(=O)(=O)c2ccc(Br)cc2)c2cccnc21 value_units=s measurement=998
molecule=Cc1ccc(S(=O)(=O)N2CCc3c(c(-c4nnc(-c5ccc(F)cc5)o4)nn3C)C2)c(C)c1 value_units=s measurement=1060
molecule="O=C(Nc1ccccc1)N1CCCC1c1nc(-c2cccc(Cl)c2)no1 (centres undefined)" value_units=s measurement=1030
molecule=Cc1cc(-c2nnc(-c3ccccc3)o2)c(C)n1CC(=O)Nc1ccc2c(c1)OCO2 value_units=s measurement=596
molecule="CCC(C)C(NC(=O)c1ccc(F)c(Cl)c1)C(=O)Nc1nc2ccccc2[nH]1 (centres undefined)" value_units=s measurement=817
molecule="Cc1cc(C(F)(F)F)nn1CC(=O)N1CCC(n2c(C)cnc2C2CCC2)C1 (centres undefined)" value_units=s measurement=656
molecule=COc1ccc(-c2nc(-c3ccc4oc(C)nc4c3)no2)c(C)c1 value_units=s measurement=1170
molecule=COc1ccc(CNS(=O)(=O)c2cc(-c3nc(C(C)C)cs3)sc2C)cc1 value_units=s measurement=1180
molecule=Cc1ncc2c(n1)C[C@@H]1CC[C@H]2N1C(=O)c1cccnc1 value_units=s measurement=570
molecule=COc1ccc(-n2c(C)nc3ccc(NC(=O)c4cccc([N+](=O)[O-])c4C)cc3c2=O)cc1 value_units=s measurement=779
molecule=Cc1ccc(-n2c(=O)c3c(cc(C)n3C)n(CC(=O)Nc3ccccc3Cl)c2=O)cc1 value_units=s measurement=900
molecule="CCc1ccccc1NC(=O)N1CCCC1c1nc(-c2cccc(OC)c2)no1 (centres undefined)" value_units=s measurement=957
molecule=Cc1ccc(-c2nc3ccccn3c2Nc2ccccc2C)cc1 value_units=s measurement=731
